Taken from patent US20250326838A1.

- assayed.system: T1, His-tagged cynomolgus monkey Siglec15 protein (cynomolgus monkey, UniProt A0A2K5UY47 20-262)
- T1 construct: not shown: His tag
- T1 sequence: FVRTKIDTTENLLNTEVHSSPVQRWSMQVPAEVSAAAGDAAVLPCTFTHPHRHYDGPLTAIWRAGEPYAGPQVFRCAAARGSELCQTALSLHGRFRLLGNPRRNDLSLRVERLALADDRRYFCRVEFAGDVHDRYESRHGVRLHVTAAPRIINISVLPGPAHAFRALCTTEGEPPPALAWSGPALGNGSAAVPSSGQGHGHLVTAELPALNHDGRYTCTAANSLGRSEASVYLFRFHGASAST
- method.notes: ELISA, His-tagged cynomolgus monkey Siglec15 coated

>  <binder>
1-7F4 monoclonal antibody (antibody, V domains shown) VH: EVQLQQSGPELVKPGASVKMSCKASGYTFTTYVMHWVKQKPGQGLEWIGYINPYNDKTKYNEKFKGKATLTSDKSSSTAYMEVSRLTSEDSAVYYCGSGYDAMDYWGQGTSVTVSS VL: DIQMTQSPASLSVSVGETVTITCRASENIYSHLAWYQQKQGKSPQLLIYSATNLADGVPSRFNGSGSGTQYSLKINSLQSEDFGSYYCQHFWGTPWTFGGGTKLEIK

>  <EC50 (ng/mL)>
14.8

$$$$
>  <binder>
14A7 monoclonal antibody (antibody, V domains shown) VH: DVQLQESGPGLVKPSQSLSLTCTVTGYSITSDFAWNWIRQFPGNKLEWMGYIRFSGSTTYKPTLKSRISITRDTSKNQFFLQLNSVTTEDSATYYCAREDYDGLFDYWGQGTTLTVTS VL: DVLMTQTPLSLPVSLGDHASISCRSSQTILHSNGNTYLDWYLQKPGQSPKLLIYKVSNRFSGVPDRFSGSGSGTDFTLKISRVEAEDLGVYYCFQGSHVPYTFGGGTKLEIK

>  <EC50 (ng/mL)>
8.51

$$$$
>  <binder>
1-10E5 monoclonal antibody (antibody, V domains shown) VH: DVKLVESGGGLVKPGGSLKLSCVVSGLTFSRYTMSWVRQTPEKRLEWVATISSGGNSTYYPDSVKGRFTISRDDAKDTLYLQMSSLKSEDTAMYYCTNYGYFFDYWGQGTTLTVSS VL: DIQMTQSPASLSASVGETVTITCRASENIYSFLAWYQQKQGKSPQLLVYNAKTLAEGVPSRFSGSGSGTQFSLKINSLQPEDFGSYYCQHHYDRPLTFGAGTKLELK

>  <EC50 (ng/mL)>
9.49

$$$$
>  <binder>
1-15D1 monoclonal antibody (antibody, V domains shown) VH: EVQLQQSGPELVKPGASVKMSCKASGYTFTTYVMHWVKQKPGQGLEWIGYINPYNDNTKYNEKFKGKATLTSDKSSSTAYMELSSLTSEDSAVYYCGSGYDAMDYWGQGTSVTVSS VL: DIQMAQSPASLSVSVGETVTITCRTSENIYSHLAWYQQKQGKSPQLLVYSATNLADGVPSRFNGSGSGTQYSLKINSLQSEDFGSYYCQHFWGTPWTFGGGTKLEIK

>  <EC50 (ng/mL)>
9.07

$$$$
